Test system: HPPD polypeptides (wild-type SEQ ID NO:1 and mutants)
condition label: total change in signal in presence of 50 μM Cmpd. 1, normalised to that without inhibitor; low substrate concentration
Would you mind telling me the reported Residual turnover of each entry?
Response body: numeric value in %, unit text excluded.

Ask | Please look at this molecule and report its Residual turnover: 19 (protein, mutant HPPD polypeptide) MADLYENPMGLMGFEFIEFASPTPGTLEPIFEIMGFTKVATHRSKNVHLYRQGEINLILNNEPNSIASYFAAEHGPSVCGMAFRVKDSQKAYNRALELGAQPIHIDTGPMELNLPAIKGIGGAPLYLIDRFGEGSSIYDIDFVYLEGVERNPVGAGLKVIDHLTHNVYRGRMVYWANFYEKLFNFREARYFDIKGEYTGLTSKAMSAPDGMIRIPLNEESSKGAGQIEEFLMQFNGEGIQHVAFLTDDLVKTWDALKKIGMRFRTAPGDEYYEMLEGRLPDHGEPVDQLQARGILLDGSSVEGDKRLLLQIFSETLMGPVFFEFIQRKGHDGFGPDSFKVLFESVERDQVRRGVLTAD
Reply | 88

Ask | Specify Residual turnover for 40 (protein, mutant HPPD polypeptide) MADLYENPMGLMGFEFIEFASPTPGTLEPIFEIMGFTKVATHRSKNVHLYRQGEINLILNNEPNSIASYFAAEHGPSVCGMAFRVKDSQKAYNRALELGAQPIHIDTGPMELNLPAIKGIGGAPLYLIDRFGEGSSIYDIDFVYLEGVERNPVGAGLKVIDHLTHNVYRGRMVYWANFYEKLFNFREARYFDIKGEYTGLTSKMMSAPDGMIRIPLNEESSKGAGQIEEFLMQFNGEGIQHVAFLTDDLVKTWDALKKIGMRFMTAPGDEYYEMLEGRLPDHGEPVDQLQARGILLDGSSVEGDKRLLLQIFSETLMGPVFFEFIQRKGDDGFGPDSFKVLFESVERDQVRRGVLTAD and stop.
Reply | 77

Ask | Read off the recorded Residual turnover for 81 (protein, mutant HPPD polypeptide) MADLYENPMGLMGFEFIEFASPTPGTLEPIFEIMGFTKVATHRSKNVHLYRQGEINLILNNEPNSIASYFAAEHGPSVCGMAFRVKDSQKAYNRALELGAQPIHIDTGPMELNLPAIKGIGGAPLYLIDRFGEGSSIYDIDFVYLEGVERNPVGAGLKVIDHLTHNVYRGRMVYWANFYEKLFNFREARYFDIKGEYTGLTSKAMSAPDGMIRIPLNEESSKGAGQIEEFLMQFNGEGIQHVAFLTDDLVKTWDALKKIGMRFMTAPGDEYYEMLEGRLPDHGEPVDQLQARGILLDGSSVEGDKRLLLQIFSETLMGPVFFEFIQRKGDDGFGPDSFKALFESVERDQVRRGVLTAD
Reply | 51

Ask | Look up and state reported Residual turnover for 46 (protein, mutant HPPD polypeptide) MADLYENPMGLMGFEFIEFASPTPGTLEPIFEIMGFTKVATHRSKNVHLYRQGEINLILNNEPNSIASYFAAEHGPSVCGMAFRVKDSQKAYNRALELGAQPIHIDTGPMELNLPAIKGIGGAPLYLIDRFGEGSSIYDIDFVYLEGVERNPVGAGLKVIDHLTHNVYRGRMVYWANFYEKLFNFREARYFDIKGEYTGLTSKAMSAPDGMIRIPLNEESSKGAGQIEEFLMQFNGEGIQHVAFLTDDLVKTWDALKKIGMRFMTAPGDEYYEMLEGRLPDHGEPVDQLQARGILLDGSSVEGDKRLLLQIFSEMLMGPVFFEFIQRKGDDGFGPDSFKVLFESVERDQVRRGVLTAD
Reply | 59
